The reported numbers originate from ChEMBL document CHEMBL5154797.

# test_system: Spike glycoprotein (Severe acute respiratory syndrome coronavirus 2, UniProt P0DTC2)
recorded_metric: Kd (nM)
Use nM as the unit, but write only the number.

Prompt: Recorded Kd of "COc1ccc(-n2c3c/c(=N\C(C)C)c(Nc4cccc(F)c4)cc-3nc3ccccc32)cn1" , please.
Completion: 2520

* * *

# experimental_details: Selectivity index, ratio of CC50 for cytotoxicity against human Huh7 cells to EC50 for antiviral activity against S-protein based pseudotyped SARS-CoV-2 infected in Huh7 cells
# Format: functional
The following molecules are shown together with reported Selectivity Index values.
Could you keep your reply to the number by itself?

>>> measurement("CC(C)/N=c1\\cc2n(-c3ccc(Cl)cc3)c3ccccc3nc-2cc1Nc1ccc(F)cc1")
2.8
>>> measurement("COc1ccc(Nc2cc3nc4ccccc4n(-c4ccc(Cl)cc4)c-3c/c2=N\\C(C)C)cc1")
5.4

Prompt: # query: Selectivity Index of entry "CC(C)/N=c1\cc2n(-c3ccc(Cl)cc3)c3ccccc3nc-2cc1Nc1ccccc1"
Completion: 3.8

Prompt: Can you share its Selectivity Index? I mean this molecule: "COc1ccc(-n2c3c/c(=N\C(C)C)c(Nc4cccc(F)c4)cc-3nc3ccccc32)cn1"
Completion: 6.1

* * *

Property: Selectivity Index; scope: individual compounds
# experimental_details: Selectivity index, ratio of CC50 for cytotoxicity against human Huh7 cells to EC50 for antiviral activity against S-protein based pseudotyped SARS-CoV-2 infected in Huh7 cells
# Type: functional
A bare number is all that is needed in reply.

Consider the reported Selectivity Index for these compounds:
>>> measurement("CC(C)/N=c1\\cc2n(-c3ccc(F)cc3)c3ccccc3nc-2cc1Nc1ccc(F)cc1")
3.3
>>> measurement("CCC/N=c1\\cc2n(-c3ccc(Cl)cc3)c3ccccc3nc-2cc1Nc1ccc(Cl)cc1")
2.7
>>> measurement("COc1ccc(-n2c3c/c(=N\\C4CC4)c(Nc4ccc(F)cc4)cc-3nc3ccccc32)cn1")
2.7
>>> measurement("COc1ccc(Nc2cc3nc4ccccc4n(-c4ccccc4)c-3c/c2=N\\C(C)C)cn1")
1.7

Let us examine a further case.
Prompt: Reported Selectivity Index, compound "CCC/N=c1\cc2n(-c3ccc(Cl)cc3)c3ccccc3nc-2cc1Nc1ccc(F)cc1" : ____
Completion: 1.5

* * *

# experimental_details: Cytotoxicity against golden hamster BSR cells assessed as reduction in cell viability incubated for 24 hrs by microplate luminometer method
# Assay type: toxicity, cell-based, Mesocricetus auratus
# condition_parameters: bsr, 24 h
Each item that follows carries a reported CC50.

These recorded examples may help you get a feel for the data.
>>> measurement("CCC/N=c1\\cc2n(-c3ccc(OC)nc3)c3ccccc3nc-2cc1Nc1ccc(F)cc1")
"107 µM"
>>> measurement("CCC/N=c1\\cc2n(-c3ccc(Cl)cc3)c3ccccc3nc-2cc1Nc1ccc(F)cc1")
"54.5 µM"

Prompt: Could you share which CC50 value was measured for "CC(C)/N=c1\cc2n(-c3ccc(Cl)cc3)c3ccccc3nc-2cc1NCc1ccc(Cl)cc1" ?
Completion: 93.1 µM

Prompt: Endpoint output: CC50 of "CC(C)/N=c1\cc2n(-c3ccccc3)c3ccccc3nc-2cc1NCc1ccc(F)cc1" . Value?
Completion: 17.3 µM

Prompt: Reported CC50 for "N=c1cc2n(-c3ccc(Cl)cc3)c3ccccc3nc-2cc1Nc1ccccc1" : what is it?
Completion: 35.4 µM

Prompt: Please report the recorded CC50 for "COc1ccc(Nc2cc3nc4ccccc4n(-c4ccc(Cl)cc4)c-3c/c2=N\C(C)C)cn1" .
Completion: 35.4 µM

Prompt: What CC50 value was documented for this molecule, "CC(C)/N=c1\cc2n(-c3ccc(Cl)cc3)c3ccccc3nc-2cc1Nc1ccccc1" ?
Completion: 185 µM

Prompt: I'd like to know its CC50. The molecule in question is "COc1ccc(Nc2cc3nc4ccccc4n(-c4ccc(Cl)cc4)c-3c/c2=N\C(C)C)cc1"
Completion: 130 µM

Prompt: Sample "CC(C)/N=c1\cc2n(-c3ccccc3)c3ccccc3nc-2cc1NCc1ccccc1" — what was its CC50?
Completion: 107 µM

* * *

# experimental_details: Selectivity index, ratio of CC50 for cytotoxicity against golden hamster BSR cells to EC50 for antirabies activity against Rabies virus infected in golden hamster BSR cells
# Format: toxicity, cell-based
# condition_parameters: read-out: Selectivity Index
Decide using selectivity ratio: a value greater than or equal to 20 is true, a smaller one is false.

Prompt: Decide: is the reported value of selectivity ratio for "COc1ccc(Nc2cc3nc4ccccc4n(-c4ccc(OC)nc4)c-3c/c2=N\C(C)C)cc1" equal to or greater than 20?
Completion: true

* * *

# experimental_details: Binding affinity to rabies recombinant GST-His-tagged G-glycoprotein protein (20 to 459 AA residues) expressed in Escherichia coli BL21 (DE3) cells assessed as Kd treated for 60 secs followed dissociation time of 120 secs by SPR analysis
# Set-up: species or system Lyssavirus rabies
recorded_metric: Kd (nM)
Write it as a number; the unit nM goes unstated.

>>> measurement("CC(C)/N=c1\\cc2n(-c3ccc(Cl)cc3)c3ccccc3nc-2cc1Nc1ccc(Cl)cc1")
280

Now for a further molecule.
Prompt: Fill blank: measured Kd of the molecule "COc1ccc(-n2c3c/c(=N\C(C)C)c(Nc4cccc(F)c4)cc-3nc3ccccc32)cn1" is ____.
Completion: 730

* * *

# experimental_details: Cytotoxicity against golden hamster BSR cells assessed as reduction in cell viability incubated for 24 hrs by microplate luminometer method
# Type: toxicity, cell-based, Mesocricetus auratus
# condition_parameters: bsr, 24 h
recorded_metric: CC50 (µM)
// note: answer is a bare numeric in µM

Take a look at these entries with their results.
>>> measurement("COc1ccc(Nc2cc3nc4ccccc4n(-c4ccc(Cl)cc4)c-3c/c2=N\\C(C)C)c(OC)c1")
120
>>> measurement("COc1ccc(-n2c3c/c(=N\\C(C)C)c(Nc4ccc(Cl)cc4)cc-3nc3ccccc32)cn1")
107
>>> measurement("COc1ccc(-n2c3c/c(=N\\C4CC4)c(Nc4ccc(F)cc4)cc-3nc3ccccc32)cn1")
107

Prompt: Quick one: CC50 of "N=c1cc2n(-c3ccc(Cl)cc3)c3ccccc3nc-2cc1Nc1ccc(Cl)cc1" ?
Completion: 35.4

Prompt: Returns the measured CC50 for the input compound. Input: "COc1ccc(Nc2cc3nc4ccccc4n(-c4ccccc4)c-3c/c2=N\C(C)C)cn1"
Completion: 107

* * *

# experimental_details: Cytotoxicity against golden hamster BSR cells assessed as reduction in cell viability incubated for 24 hrs by microplate luminometer method
# Format: toxicity, cell-based, Mesocricetus auratus
# condition_parameters: bsr, 24 h
Measured CC50 accompanies every entry in the list below.
Reply with just the number (in µM).

Some solved entries appear below for comparison.
>>> measurement("COc1ccc(-n2c3c/c(=N\\C4CCC(OC)CC4)c(Nc4ccc(F)cc4)cc-3nc3ccccc32)cn1 (stereo not drawn)")
84.4
>>> measurement("CCC/N=c1\\cc2n(-c3ccccc3)c3ccccc3nc-2cc1Nc1ccccc1")
14.4

Prompt: Look up CC50 for this molecule: "CC(C)/N=c1\cc2n(-c3ccccc3)c3ccccc3nc-2cc1Nc1ccc(Cl)cc1"
Completion: 42.6

* * *

# experimental_details: Acute toxicity in Kunming mouse assessed as lethal dose administered orally measured after 7 days
# condition_parameters: in vivo, 800 mg/kg, route po, time 7 day
Quick list: LD50 at 168 h per entry.
Output spec: scalar in mg/kg, unitless text.

>>> measurement("COc1ccc(-n2c3c/c(=N\\C(C)C)c(Nc4cccc(F)c4)cc-3nc3ccccc32)cn1")
800

Now for another entry.
Prompt: What does the record list as LD50 at 168 h for "COc1ccc(-n2c3c/c(=N\C(C)C)c(Nc4ccc(F)cc4)cc-3nc3ccccc32)cn1" ?
Completion: 800

* * *

# experimental_details: Cytotoxicity against golden hamster BSR cells assessed as reduction in cell viability incubated for 24 hrs by microplate luminometer method
# Format: toxicity, cell-based, Mesocricetus auratus
# condition_parameters: BSR cells
Each item that follows carries a reported CC50 at 24 h.
Quick note: give the figure in µM, leave out the unit.

Here is how some molecules turned out for CC50 at 24 h.
>>> measurement("COc1ccc(-n2c3c/c(=N\\C(C)C)c(Nc4ccccc4)cc-3nc3ccccc32)cn1")
323
>>> measurement("COc1ccc(-n2c3c/c(=N\\C(C)C)c(Nc4ccc(F)cc4)cc-3nc3ccccc32)cn1")
323
>>> measurement("CC(C)/N=c1\\cc2n(-c3ccc(F)cc3)c3ccccc3nc-2cc1Nc1ccc(Cl)cc1")
223

Prompt: Bench note: what CC50 at 24 h did "CCC/N=c1\cc2n(-c3ccc(Cl)cc3)c3ccccc3nc-2cc1Nc1ccc(Cl)cc1" show?
Completion: 323

* * *

# experimental_details: Selectivity index, ratio of CC50 for cytotoxicity against human Huh7 cells to EC50 for antiviral activity against S-protein based pseudotyped SARS-CoV-2 infected in Huh7 cells
# Assay type: functional
recorded_metric: Selectivity Index

Some entries whose results are on file:
>>> measurement("COc1ccc(Nc2cc3nc4ccccc4n(-c4ccc(Cl)cc4)c-3cc2=N)cc1")
">1.7"
>>> measurement("COc1ccc(Nc2cc3nc4ccccc4n(-c4ccc(Cl)cc4)c-3c/c2=N\\C(C)C)c(OC)c1")
">1.3"
>>> measurement("COc1ccc(-n2c3c/c(=N\\C(C)C)c(Nc4ccc(F)cc4)cc-3nc3ccccc32)cn1")
">8.9"
>>> measurement("COc1ccc(-n2c3c/c(=N\\C4CCC(OC)CC4)c(Nc4ccc(F)cc4)cc-3nc3ccccc32)cn1 (stereo not given)")
">5.1"

Prompt: Need Selectivity Index, item "CC(C)/N=c1\cc2n(-c3ccc(Cl)cc3)c3ccccc3nc-2cc1Nc1ccc(OC(F)(F)F)cc1"
Completion: 3.8

Prompt: Query: Selectivity Index; subject: "COc1ccc(Nc2cc3nc4ccccc4n(-c4ccc(Cl)cc4)c-3cc2=N)c(OC)c1"
Completion: 1

Prompt: Entry "Fc1ccc(Nc2cc3nc4ccccc4n(-c4ccc(Cl)cc4)c-3c/c2=N\C2CC2)cc1" : reported Selectivity Index = ?
Completion: 1.2

Prompt: Consider the compound shown here: "COc1ccc(-n2c3c/c(=N\C(C)C)c(Nc4ccc(Cl)cc4)cc-3nc3ccccc32)cn1" What is its recorded Selectivity Index?
Completion: >5.1

Prompt: # query: Selectivity Index of entry "CCC/N=c1\cc2n(-c3ccccc3)c3ccccc3nc-2cc1Nc1ccccc1"
Completion: >3.5
